- target system: Sodium-dependent serotonin transporter (Rattus norvegicus)
- Sequence (P31652 whole entry): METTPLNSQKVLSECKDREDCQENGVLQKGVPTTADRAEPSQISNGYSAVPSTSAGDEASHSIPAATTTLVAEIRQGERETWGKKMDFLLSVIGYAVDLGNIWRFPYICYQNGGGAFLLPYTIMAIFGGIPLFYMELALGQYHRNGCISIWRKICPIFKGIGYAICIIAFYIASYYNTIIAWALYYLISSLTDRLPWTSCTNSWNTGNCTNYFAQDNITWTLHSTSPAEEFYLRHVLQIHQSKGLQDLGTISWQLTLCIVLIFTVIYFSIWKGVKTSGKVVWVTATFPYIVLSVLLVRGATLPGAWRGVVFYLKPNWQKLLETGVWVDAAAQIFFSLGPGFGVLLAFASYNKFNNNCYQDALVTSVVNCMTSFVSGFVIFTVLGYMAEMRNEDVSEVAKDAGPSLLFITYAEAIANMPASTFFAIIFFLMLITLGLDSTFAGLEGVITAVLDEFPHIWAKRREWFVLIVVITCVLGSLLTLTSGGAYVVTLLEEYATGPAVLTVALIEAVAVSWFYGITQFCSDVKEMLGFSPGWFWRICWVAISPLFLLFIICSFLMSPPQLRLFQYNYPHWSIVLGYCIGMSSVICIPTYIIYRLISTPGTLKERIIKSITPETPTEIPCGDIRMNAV
- experimental protocol: Binding affinity to SERT in Sprague-Dawley rat brain synaptosomes assessed as induction of [3H]5-HT release by liquid scintillation counting method
Known pEC50 of a selection of compounds
As a rule, pEC50 stands for the negative log10 of the concentration, concentration in M.

For orientation, consider the following solved cases.
compound	experimental value
CNC(C)C(=O)c1ccc2c(c1)OCCO2 (racemic)	6.46
CN[C@@H](C)Cc1ccc2c(c1)OCCO2	7.04
CNC(C)C(=O)c1ccc2c(c1)OCO2 (racemic)	6.62
CN[C@H](C)Cc1ccc2c(c1)OCCO2	6.24
CNC(C)Cc1ccc2c(c1)OCCO2 (racemic)	6.93

Consider now this further compound.
Query: What does the data say about its pEC50? Entry: CNC(C)Cc1ccc2c(c1)OCO2 (racemic)
Result: 7.21

# credit: ChEMBL document CHEMBL3603823
